# Study system: Melanocortin receptor 5 (Homo sapiens, UniProt P33032)
# Sequence (P33032 whole entry): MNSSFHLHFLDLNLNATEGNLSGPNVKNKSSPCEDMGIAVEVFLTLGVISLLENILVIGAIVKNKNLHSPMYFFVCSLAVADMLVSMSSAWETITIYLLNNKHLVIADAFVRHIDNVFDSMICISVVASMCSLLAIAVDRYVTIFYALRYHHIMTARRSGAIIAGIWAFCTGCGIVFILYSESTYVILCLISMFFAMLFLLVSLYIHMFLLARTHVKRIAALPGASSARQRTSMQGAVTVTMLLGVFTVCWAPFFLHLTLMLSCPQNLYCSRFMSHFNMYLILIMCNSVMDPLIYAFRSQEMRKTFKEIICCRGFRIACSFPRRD
# Protocol description: Stimulation of intracellular cAMP levels in HEK293 cells expressing human melanocortin 5 receptor
Attribute measured: ACT (%)
Use % as the unit, but write only the number.

// worked examples, ACT included
Input smiles	Result units	ACT
N=C(N)NCCC[C@@H]1NC(=O)[C@@H](Cc2ccc3ccccc3c2)NC(=O)[C@H](Cc2c[nH]cn2)NC(=O)c2ccccc2C(=O)NCCCC[C@H](C(N)=O)NC(=O)[C@@H](Cc2c[nH]c3ccccc23)NC1=O	%	56
N=C(N)NCCC[C@@H]1NC(=O)[C@@H](Cc2ccccc2)NC(=O)[C@H](Cc2c[nH]cn2)NC(=O)CCC(=O)NCCCC[C@H](C(N)=O)NC(=O)[C@@H](Cc2c[nH]c3ccccc23)NC1=O	%	67
N=C(N)NCCC[C@@H]1NC(=O)[C@@H](Cc2ccc3ccccc3c2)NC(=O)[C@H](Cc2c[nH]cn2)NC(=O)CCC(=O)NCCCC[C@H](C(N)=O)NC(=O)[C@@H](Cc2c[nH]c3ccccc23)NC1=O	%	100
N=C(N)NCCC[C@H]1NC(=O)[C@H](Cc2ccccc2)NC(=O)[C@H]2CCCN2C(=O)CCC(=O)NCCCC[C@@H](C(N)=O)NC(=O)[C@H](Cc2c[nH]c3ccccc23)NC1=O	%	100
N=C(N)NCCC[C@@H]1NC(=O)[C@@H](Cc2ccccc2)NC(=O)[C@H](Cc2c[nH]cn2)NC(=O)c2ccccc2C(=O)NCCCC[C@H](C(N)=O)NC(=O)[C@@H](Cc2c[nH]c3ccccc23)NC1=O	%	0

Please turn your attention to the following entry.
// NCCCC[C@H](NC(=O)[C@H](Cc1c[nH]c2ccccc12)NC(=O)[C@H](CCCN=C(N)N)NC(=O)[C@@H](Cc1ccccc1)NC(=O)[C@H](Cc1c[nH]cn1)NC(=O)CCC(=O)O)C(N)=O : ACT value = 100

---

# Study system: Melanocortin receptor 5 (Homo sapiens)
# Protocol description: Effective concentration against human melanocortin 5 receptor (hMC5R) in HEK293 cells
# Format: cell-based
Attribute measured: EC50 (nM)
Use nM as the unit, but write only the number.

// worked examples, EC50 included
Input smiles	Result units	EC50
N=C(N)NCCC[C@@H]1NC(=O)[C@@H](Cc2ccc3ccccc3c2)NC(=O)[C@H](Cc2cnc[nH]2)NC(=O)c2ccccc2C(=O)NCCCC[C@@H](C(N)=O)NC(=O)[C@H](Cc2c[nH]c3ccccc23)NC1=O	nM	640
N=C(N)NCCC[C@H](NC(=O)[C@@H](Cc1ccccc1)NC(=O)[C@H](Cc1cnc[nH]1)NC(=O)CCC(=O)O)C(=O)N[C@@H](Cc1c[nH]c2ccccc12)C(=O)N[C@@H](CCCCN)C(N)=O	nM	1100

Please turn your attention to the following entry.
// N=C(N)NCCC[C@@H]1NC(=O)[C@@H](Cc2ccc3ccccc3c2)NC(=O)[C@H](Cc2c[nH]cn2)NC(=O)CCC(=O)NCCCC[C@@H](C(N)=O)NC(=O)[C@H](Cc2c[nH]c3ccccc23)NC1=O : EC50 value = 150

---

# Study system: Melanocortin receptor 3 (Homo sapiens)
# Sequence (P41968 whole entry): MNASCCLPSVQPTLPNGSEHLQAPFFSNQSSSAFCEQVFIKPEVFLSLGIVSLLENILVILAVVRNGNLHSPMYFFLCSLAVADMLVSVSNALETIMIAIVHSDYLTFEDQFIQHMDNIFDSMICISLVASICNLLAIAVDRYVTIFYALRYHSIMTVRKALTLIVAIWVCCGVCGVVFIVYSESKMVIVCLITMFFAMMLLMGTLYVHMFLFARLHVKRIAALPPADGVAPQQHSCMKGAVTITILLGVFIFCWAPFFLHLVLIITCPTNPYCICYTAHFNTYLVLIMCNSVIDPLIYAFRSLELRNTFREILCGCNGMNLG
# Protocol description: Binding affinity for human Melanocortin-3 receptor (hMC3R) expressed in HEK293 cells
# Assay type: cell-based
pKi: −log10 of the molar value.
Use 7 as the dividing line for pKi, with the line itself on the met side and lower values as not met.

Input smiles	Class name
N=C(N)NCCC[C@@H]1NC(=O)[C@@H](Cc2ccc3ccccc3c2)NC(=O)[C@H](Cc2c[nH]cn2)NC(=O)CCC(=O)NCCCC[C@@H](C(N)=O)NC(=O)[C@H](Cc2c[nH]c3ccccc23)NC1=O	met
C[C@@H]1NC(=O)CCC(=O)NCCCC[C@@H](C(N)=O)NC(=O)[C@H](Cc2c[nH]c3ccccc23)NC(=O)[C@H](CCCN=C(N)N)NC(=O)[C@@H](Cc2ccccc2)NC1=O	not met
N=C(N)NCCC[C@@H]1NC(=O)[C@@H](Cc2ccc3ccccc3c2)NC(=O)[C@H](Cc2cnc[nH]2)NC(=O)c2ccccc2C(=O)NCCCC[C@@H](C(N)=O)NC(=O)[C@H](Cc2c[nH]c3ccccc23)NC1=O	met

Reported pKi reaches at least 7 for N=C(N)NCCC[C@@H]1NC(=O)[C@@H](Cc2ccc3ccccc3c2)NC(=O)[C@H](Cc2cnc[nH]2)NC(=O)CCCC(=O)NCCCC[C@@H](C(N)=O)NC(=O)[C@H](Cc2c[nH]c3ccccc23)NC1=O ? met

Reported pKi reaches at least 7 for N=C(N)NCCC[C@@H]1NC(=O)[C@@H](Cc2ccccc2)NC(=O)[C@H](Cc2cnc[nH]2)NC(=O)c2ccccc2C(=O)NCCCC[C@@H](C(N)=O)NC(=O)[C@H](Cc2c[nH]c3ccccc23)NC1=O ? not met

Reported pKi reaches at least 7 for C[C@@H]1NC(=O)[C@@H](Cc2ccccc2)NC(=O)[C@H](Cc2cnc[nH]2)NC(=O)CCC(=O)NCCCC[C@@H](C(N)=O)NC(=O)[C@H](Cc2c[nH]c3ccccc23)NC1=O ? not met
